Where these numbers come from: ChEMBL document CHEMBL5291721

Please provide measured AC50 for the entries that follow.

Give Sodium-dependent noradrenaline transporter (Homo sapiens) AC50 for O=NN(CCCl)C(=O)NC1CCCCC1 > 30 µM

Give Sodium-dependent noradrenaline transporter (Homo sapiens) AC50 for O=c1[nH]c2ccccc2n1CCN1CCN(c2cccc(C(F)(F)F)c2)CC1 > 30 µM

Give Sodium-dependent noradrenaline transporter (Homo sapiens) AC50 for CC(=O)O[C@]1(C(C)=O)CC[C@H]2[C@@H]3CCC4=CC(=O)CCC4=C3[C@@H](c3ccc(N(C)C)cc3)C[C@@]21C [ULIPRISTAL ACETATE] > 30 µM

Give Sodium-dependent noradrenaline transporter (Homo sapiens) AC50 for CC(NCCC(c1ccccc1)c1ccccc1)c1ccccc1 (configuration not stated) 3.26 µM

Give Sodium-dependent noradrenaline transporter (Homo sapiens) AC50 for Cc1c(C(C)C)c(=O)n(-c2ccccc2)n1C > 30 µM

Give Sodium-dependent noradrenaline transporter (Homo sapiens) AC50 for CCOC(=O)[C@H](CCc1ccccc1)N[C@@H](C)C(=O)N1Cc2ccccc2C[C@H]1C(=O)O > 30 µM

Give Sodium-dependent noradrenaline transporter (Homo sapiens) AC50 for COc1cccc2c1C(=O)c1c(O)c3c(c(O)c1C2=O)C[C@@](O)(C(=O)CO)C[C@@H]3O[C@H]1C[C@H](N)[C@H](O)[C@H](C)O1 > 30 µM

Give Sodium-dependent noradrenaline transporter (Homo sapiens) AC50 for Cc1cccc(C)c1NC(=O)c1cc(S(N)(=O)=O)c(Cl)cc1O [XIPAMIDE] > 30 µM

Give Sodium-dependent noradrenaline transporter (Homo sapiens) AC50 for CC(C)NC[C@H](O)COc1ccc(CCOCC2CC2)cc1 > 30 µM

Give Sodium-dependent noradrenaline transporter (Homo sapiens) AC50 for CN1CCCC(CC2c3ccccc3Sc3ccccc32)C1 (configuration not stated) 3.29 µM

Give Sodium-dependent noradrenaline transporter (Homo sapiens) AC50 for CSCC[C@H](N)C(=O)O > 30 µM

Give Sodium-dependent noradrenaline transporter (Homo sapiens) AC50 for CC#CC(=O)N1CCC[C@H]1c1nc(-c2ccc(C(=O)Nc3ccccn3)cc2)c2c(N)nccn12 > 30 µM

Give Sodium-dependent noradrenaline transporter (Homo sapiens) AC50 for COc1cccc2c1C(=O)c1c(O)c3c(c(O)c1C2=O)C[C@@](O)(C(=O)CO)C[C@@H]3O[C@H]1C[C@H](N)[C@@H](O)[C@H](C)O1 [EPIRUBICIN] > 30 µM

Give Sodium-dependent noradrenaline transporter (Homo sapiens) AC50 for NC(=O)N/N=C/c1ccc([N+](=O)[O-])o1 > 30 µM

Give Sodium-dependent noradrenaline transporter (Homo sapiens) AC50 for C[C@@H]1O[C@@H](O[C@H]2C[C@@H](O)[C@]3(CO)[C@H]4[C@H](O)C[C@]5(C)[C@@H](C6=CC(=O)OC6)CC[C@]5(O)[C@@H]4CC[C@]3(O)C2)[C@H](O)[C@H](O)[C@H]1O > 30 µM

Give Sodium-dependent noradrenaline transporter (Homo sapiens) AC50 for OC[C@H]1NC[C@H](O)[C@@H](O)[C@H]1O > 30 µM

Give Sodium-dependent noradrenaline transporter (Homo sapiens) AC50 for NC(=O)C1(N2CCCCC2)CCN(CCCN2c3ccccc3CCc3ccccc32)CC1 11.7 µM

---

Please provide measured AC50 for the entries that follow.
# TEST TARGET: Gamma-aminobutyric acid receptor subunit alpha-1 (Rattus norvegicus); further: assay procedure not described here
# Sequence (P62813 whole entry): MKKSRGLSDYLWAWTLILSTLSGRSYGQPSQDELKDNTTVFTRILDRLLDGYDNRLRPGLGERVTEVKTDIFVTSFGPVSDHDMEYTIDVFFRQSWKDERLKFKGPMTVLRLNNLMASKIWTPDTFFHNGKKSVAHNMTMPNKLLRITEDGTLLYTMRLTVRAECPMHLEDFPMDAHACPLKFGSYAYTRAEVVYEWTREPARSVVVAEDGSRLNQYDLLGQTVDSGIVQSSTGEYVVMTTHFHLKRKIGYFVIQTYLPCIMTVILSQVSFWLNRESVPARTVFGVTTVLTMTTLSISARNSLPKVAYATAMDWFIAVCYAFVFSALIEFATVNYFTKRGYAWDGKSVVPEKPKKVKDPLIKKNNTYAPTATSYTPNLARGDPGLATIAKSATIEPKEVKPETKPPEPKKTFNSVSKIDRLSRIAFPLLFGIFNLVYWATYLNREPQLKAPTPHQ

Find the recorded AC50 belonging to CC(=O)Oc1ccccc1C(=O)O and report it. > 10 µM

Find the recorded AC50 belonging to CNCCc1ccccn1 and report it. > 30 µM

Find the recorded AC50 belonging to Cc1cnc(Nc2ccc(OCCN3CCCC3)cc2)nc1Nc1cccc(S(=O)(=O)NC(C)(C)C)c1 and report it. > 10 µM

Find the recorded AC50 belonging to CC1=C(CC(=O)O)c2cc(F)ccc2/C1=C\c1ccc([S+](C)[O-])cc1 (configuration not stated) and report it. > 10 µM

Find the recorded AC50 belonging to Oc1cc(O)c2c(c1)O[C@H](c1ccc(O)c(O)c1)[C@@H](O)C2 and report it. > 10 µM

Find the recorded AC50 belonging to Nc1nc(Cl)nc2c1ncn2[C@@H]1O[C@H](CO)[C@@H](O)[C@@H]1F and report it. > 10 µM

Find the recorded AC50 belonging to CS(=O)(=O)Nc1ccc([N+](=O)[O-])cc1Oc1ccccc1 [NIMESULIDE] and report it. > 30 µM

Find the recorded AC50 belonging to Cc1cccc(Nc2ccncc2S(=O)(=O)NC(=O)NC(C)C)c1 [TORSEMIDE] and report it. > 10 µM

Find the recorded AC50 belonging to CCCCCCCC(=O)CC[C@@H]1[C@@H](C/C=C\CCCC(=O)O)[C@@H](O)C[C@H]1O and report it. > 30 µM

Find the recorded AC50 belonging to Cc1c(C)c2c(c(C)c1O)CCC(C)(COc1ccc(CC3SC(=O)NC3=O)cc1)O2 (configuration not stated) and report it. > 30 µM

Find the recorded AC50 belonging to COC(=O)[C@H]1[C@H]2C[C@@H]3c4[nH]c5ccccc5c4CCN3C[C@H]2C[C@@H](OC(=O)c2cc(OC)c(OC)c(OC)c2)[C@@H]1OC and report it. > 10 µM

Find the recorded AC50 belonging to CC(=O)SCC(Cc1ccccc1)C(=O)NCC(=O)OCc1ccccc1 (configuration not stated) and report it. > 30 µM

Find the recorded AC50 belonging to O=C1CN=C(c2ccccc2Cl)c2cc([N+](=O)[O-])ccc2N1 and report it. > 10 µM

Find the recorded AC50 belonging to CCC(NC(C)C)C(O)c1ccc(O)c(O)c1 (configuration not stated) and report it. > 30 µM

Find the recorded AC50 belonging to CN(C)CCC=C1c2ccccc2CCc2ccccc21 and report it. > 10 µM

Find the recorded AC50 belonging to N=C(N)NC(=O)c1nc(Cl)c(N)nc1N [AMILORIDE] and report it. > 30 µM

Find the recorded AC50 belonging to C#CCN(C)Cc1ccccc1 and report it. > 30 µM

Find the recorded AC50 belonging to Cc1ccc(S(=O)(=O)NC(=O)N[C@H]2[C@H]3CC[C@@](C)([C@H]2O)C3(C)C)cc1 [GLIBORNURIDE] and report it. > 30 µM

Find the recorded AC50 belonging to CCOc1ccccc1OCCN[C@H](C)Cc1ccc(OC)c(S(N)(=O)=O)c1 and report it. > 10 µM

Find the recorded AC50 belonging to OCC(CO)N[C@H]1C[C@](O)(CO)[C@@H](O)[C@H](O)[C@H]1O and report it. > 30 µM

Find the recorded AC50 belonging to CCC(=O)[C@@]1(C)[C@H](C)C[C@H]2[C@@H]3CCC4=CC(=O)C=C[C@]4(C)[C@H]3[C@@H](O)C[C@@]21C [RIMEXOLONE] and report it. > 10 µM

Find the recorded AC50 belonging to CC1Cc2ccccc2N1NC(=O)c1ccc(Cl)c(S(N)(=O)=O)c1 (configuration not stated) [INDAPAMIDE] and report it. > 10 µM

Find the recorded AC50 belonging to O=C1CC2(CCCC2)CC(=O)N1CCCCN1CCN(c2ncccn2)CC1 and report it. > 10 µM

Find the recorded AC50 belonging to CCC(=O)O[C@H](CC(=O)O)C[N+](C)(C)C [LEVOCARNITINE PROPIONATE] and report it. > 30 µM

Find the recorded AC50 belonging to COc1nc(C)nc(Cl)c1N=C1NCCN1 and report it. > 30 µM

Find the recorded AC50 belonging to CC1NCCOC1c1ccccc1 (configuration not stated) and report it. > 10 µM

Find the recorded AC50 belonging to CN(C)CCC(O)(c1ccccc1)c1ccccc1Cl (configuration not stated) and report it. > 10 µM

Find the recorded AC50 belonging to COc1cc(C(=O)NCc2ccc(OCCN(C)C)cc2)cc(OC)c1OC [TRIMETHOBENZAMIDE] and report it. > 30 µM

Find the recorded AC50 belonging to O=C(Cc1cccs1)N[C@@H]1C(=O)N2C(C(=O)[O-])=C(C[n+]3ccccc3)CS[C@H]12 and report it. > 30 µM

Find the recorded AC50 belonging to CCCCOC(=O)c1ccc(N)cc1 and report it. > 30 µM

Find the recorded AC50 belonging to CCN(CC)CCn1c(=O)c(Cc2ccc(OC)cc2)nc2ccccc21 and report it. > 30 µM

Find the recorded AC50 belonging to COc1ccc2c3c1O[C@H]1C(=O)CC[C@H]4[C@@H](C2)N(C)CC[C@]314 [HYDROCODONE] and report it. > 10 µM

Find the recorded AC50 belonging to CC(=O)NC[C@H]1CN(c2ccc(N3CCOCC3)c(F)c2)C(=O)O1 and report it. > 30 µM

Find the recorded AC50 belonging to COC(=O)CCc1ccc(OCC(O)CNC(C)C)cc1 (configuration not stated) and report it. > 30 µM

Find the recorded AC50 belonging to NCCCNCCSP(=O)(O)O and report it. > 30 µM

Find the recorded AC50 belonging to OCCN(CCO)c1nc(N2CCCCC2)c2nc(N(CCO)CCO)nc(N3CCCCC3)c2n1 and report it. > 30 µM

Find the recorded AC50 belonging to Nc1ccc(S(=O)(=O)Nc2ncccn2)cc1 and report it. > 10 µM
